This collection of values is drawn from patent US20260365628A1.

- measurementTarget: hTSHR (Homo sapiens, UniProt P16473)
- Construct: expressed in transfected cells
- Sequence (P16473 21-764): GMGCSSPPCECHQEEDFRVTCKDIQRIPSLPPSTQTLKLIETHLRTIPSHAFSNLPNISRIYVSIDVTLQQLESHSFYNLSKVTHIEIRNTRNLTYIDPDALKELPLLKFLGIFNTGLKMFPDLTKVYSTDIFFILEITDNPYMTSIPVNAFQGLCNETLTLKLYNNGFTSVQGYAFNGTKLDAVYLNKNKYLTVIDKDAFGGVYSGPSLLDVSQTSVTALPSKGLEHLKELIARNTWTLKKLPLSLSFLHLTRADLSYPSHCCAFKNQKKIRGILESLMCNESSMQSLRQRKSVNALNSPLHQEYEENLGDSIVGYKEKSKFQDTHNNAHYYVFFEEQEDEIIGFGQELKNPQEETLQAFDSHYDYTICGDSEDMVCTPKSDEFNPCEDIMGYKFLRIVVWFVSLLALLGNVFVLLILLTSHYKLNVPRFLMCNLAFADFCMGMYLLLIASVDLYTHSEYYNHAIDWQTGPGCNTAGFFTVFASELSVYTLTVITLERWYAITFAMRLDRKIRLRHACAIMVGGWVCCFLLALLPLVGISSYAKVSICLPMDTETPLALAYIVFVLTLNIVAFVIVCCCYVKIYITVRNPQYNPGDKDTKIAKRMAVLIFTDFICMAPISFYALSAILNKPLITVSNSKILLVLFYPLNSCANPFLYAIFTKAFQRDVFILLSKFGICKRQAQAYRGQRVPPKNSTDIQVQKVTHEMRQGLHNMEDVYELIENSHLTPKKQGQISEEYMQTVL
- protocolText: hTSHR TR-FRET cAMP Assay (inhibition of M22-stimulated cAMP production)
- Type: cell-based
- conditions: Expi293F Inducible cells stably expressing hTSHR; cAMP HTRF; stimulated with EC80 of anti-TSHR antibody M22; 15 min compound preincubation, 30 min at 37° C.; read-out: Activity (IC50 bins)
Parameter: IC50. Scope: all listed entries.

# molecule, IC50
records = [
    ("Cc1cccc([C@H](C)N2C(=O)COc3cc(NC(=O)NC(C)(C)C)ccc32)c1 [Example 57]", "< 100 nM"),
    ("CC(C)(C)NC(=O)Nc1ccc2c(c1)OCC(=O)N2Cc1cccc(Cl)c1 [Example 33]", "< 100 nM"),
    ("C[C@@H](c1cccc(OC(F)(F)F)c1)n1c(=O)cnc2cc(NC(=O)NC3CCC3)ccc21 [Example 205]", "100 to 1000 nM"),
    ("Cc1ccc(C#N)c(CN2C(=O)CCc3cc(NC(=O)NC(C)(C)C)ccc32)c1 [Example 266]", "> 1000 nM"),
]

* * *

- measurementTarget: hTSHR (Homo sapiens, UniProt P16473)
- Construct: expressed in transfected cells
- protocolText: hTSHR TR-FRET cAMP Assay (inhibition of M22-stimulated cAMP production)
- Type: cell-based
- conditions: Expi293F Inducible cells stably expressing hTSHR; cAMP HTRF; stimulated with EC80 of anti-TSHR antibody M22; 15 min compound preincubation, 30 min at 37° C.; read-out: Activity (IC50 bins)

# compound, IC50
rows = [
    ("C[C@H]1Oc2cc(NC(=O)NC(C)(C)C)ccc2N(Cc2cccc(C(F)(F)F)c2)C1=O", "< 100 nM"),
    ("CC(c1cccc(OC(F)(F)F)c1)n1c(=O)cnc2cc(NC(=O)[C@H]3CCC3(C)C)ccc21 (stereo in doubt)", "100 to 1000 nM"),
    ("CC(c1cccc(OC(F)(F)F)c1F)n1c(=O)cnc2cc(NC(=O)NC(C)(C)C)ccc21 (stereo not shown)", "100 to 1000 nM"),
    ("C[C@@H]1Oc2cc(NC(=O)NC(C)(C)C)ccc2N(Cc2ccccc2)C1=O", "< 100 nM"),
    ("C[C@@H](c1cccc(C2CCC2)c1)n1c(=O)cnc2cc(NC(=O)NC(C)(C)C)ccc21", "100 to 1000 nM"),
    ("C[C@@H](c1cccc(OC(F)(F)F)c1)n1c(=O)cnc2cc(NC(=O)OC3CCCC3)ccc21", "< 100 nM"),
    ("C[C@@H](c1cccc(OC(F)(F)F)c1)n1c(=O)cnc2cc(NC(=O)NC3(C(F)(F)F)CC(F)(F)C3)ccc21", "100 to 1000 nM"),
    ("C[C@@H](c1cc(OC(F)(F)F)ccc1F)n1c(=O)cnc2cc(NC(=O)NC(C)(C)C)ccc21", "100 to 1000 nM"),
    ("CC(C)(C)NC(=O)Nc1ccc2c(c1)CCC(=O)N2Cc1cccc(C#N)c1", "> 1000 nM"),
    ("CC(c1cccc(C2CCC2)c1)n1c(=O)cnc2cc(NC(=O)NC(C)(C)C)ccc21 (stereo not shown)", "100 to 1000 nM"),
    ("COc1cccc([C@H](C)N2C(=O)CCc3cc(NC(=O)NC(C)(C)C)ccc32)c1", "100 to 1000 nM"),
    ("CC(C)(C)CC(=O)Nc1ccc2c(c1)CCC(=O)N2Cc1ccccc1", "> 1000 nM"),
    ("C[C@H]1Oc2cc(NC(=O)NC(C)(C)C)ccc2N(Cc2cccc(C(F)F)c2)C1=O", "< 100 nM"),
    ("C[C@@H](c1cc(F)ccc1F)n1c(=O)cnc2cc(NC(=O)NC(C)(C)C)ccc21", "100 to 1000 nM"),
    ("Cc1cccc([C@H](C)n2c(=O)cnc3cc(NC(=O)NC(C)(C)C)ccc32)c1", "100 to 1000 nM"),
    ("C[C@@H](c1ccccc1)n1c(=O)cnc2cc(NC(=O)NC(C)(C)C)ccc21", "100 to 1000 nM"),
]
